# Test system: Pseudomonas aeruginosa
# assay_explanation: Antibacterial activity against 5 x 10^5 CFU/mL Pseudomonas aeruginosa Boston 41501 ATCC 27853 incubated for 72 hrs followed by growing of cells on trypticase soy agar plate for 24 hrs by CLSI M07-A8 broth microdilution method
# Format: functional
Each entry below carries its recorded MBC.

For orientation, consider the following solved cases.
* CCCCCCCCCCCCOc1cc(C[N+](C)(C)C)ccc1C[N+](C)(C)C | > 500 µM
* CCCCCCCCCCCCCCOc1cc(C[N+](C)(C)C)cc(C[N+](C)(C)C)c1.[Br-].[Br-] | 63 µM
* CCCCCCCCCCCCCCOc1ccc(C[N+](C)(C)C)cc1.[Br-] | > 500 µM
* CCCCCCCCCCOc1cc(C[N+](C)(C)C)ccc1C[N+](C)(C)C | > 500 µM

We now examine a further compound.
// lookup MBC | system=Pseudomonas aeruginosa | key= "CCCCCCCCCCCCCCOc1ccc(C[N+](C)(C)C)cc1C[N+](C)(C)C.[Br-].[Br-]"
125 µM

====

# System: Pseudomonas aeruginosa
# assay_explanation: Antibacterial activity against 5 x 10^5 CFU/mL Pseudomonas aeruginosa Boston 41501 ATCC 27853 after 72 hrs by CLSI M07-A8 broth microdilution method
# Format: functional
# measurement_parameters: Boston 41501 ATCC 27853, 72 h
outcome_measure: MIC (µM)
// note: answer is a bare numeric in µM

For orientation, consider the following solved cases.
* CCCCCCCCCCCCCCOc1ccc(C[N+](C)(C)C)cc1C[N+](C)(C)C.[Br-].[Br-] | 125
* CCCCCCCCCCCCCCCCOc1cc(C[N+](C)(C)C)ccc1C[N+](C)(C)C.[Br-].[Br-] | 125

We now examine a further compound.
Any idea what MIC was measured for "CCCCCCCCCCCCCCOc1cc(C[N+](C)(C)C)ccc1C[N+](C)(C)C.[Br-].[Br-]" ?
250

====

# Tested on: Enterococcus faecalis
# assay_explanation: Antibacterial activity against 2.5 x 10^6 CFU/mL Enterococcus faecalis ATCC 29212 assessed as time required for bacterial killing at 100 uM by microscopy based bacterial killing assay
# Type: functional
Time vs 2 h: at or above is True, below is False.

Take a look at these entries with their results.
* CCCCCCCCCCCCCCCCOc1cc(C[N+](C)(C)C)cc(C[N+](C)(C)C)c1.[Br-].[Br-] | False
* CCCCCCCCCCCCCCCCCCOc1cc(C[N+](C)(C)C)ccc1C[N+](C)(C)C.[Br-].[Br-] | False

Check this molecule for Time at or above 2 h: "CCCCCCCCCCCCCCOc1cccc(C[N+](C)(C)C)c1C[N+](C)(C)C.[Br-].[Br-]"
True

Check this molecule for Time at or above 2 h: "CCCCCCCCCCCCCCOc1cc(C[N+](C)(C)C)cc(C[N+](C)(C)C)c1.[Br-].[Br-]"
False

Check this molecule for Time at or above 2 h: "CCCCCCCCCCCCCCOc1cc(C[N+](C)(C)C)ccc1C[N+](C)(C)C.[Br-].[Br-]"
True

Check this molecule for Time at or above 2 h: "CCCCCCCCCCCCCCOc1ccc(C[N+](C)(C)C)cc1.[Br-]"
False

Check this molecule for Time at or above 2 h: "CCCCCCCCCCOc1ccc(C[N+](C)(C)C)cc1.[Br-]"
False

====

Each entry below carries its recorded MBC.
# Test system: Pseudomonas aeruginosa
# assay_explanation: Antibacterial activity against 5 x 10^5 CFU/mL Pseudomonas aeruginosa Boston 41501 ATCC 27853 incubated for 72 hrs followed by growing of cells on trypticase soy agar plate for 24 hrs by CLSI M07-A8 broth microdilution method
# Assay type: functional
// note: answer is a bare numeric in µM

For orientation, consider the following solved cases.
• CCCCCCCCCCCCCCOc1cc(C[N+](C)(C)C)ccc1C[N+](C)(C)C.[Br-].[Br-] = 250
• CCCCCCCCCCCCCCCCOc1cc(C[N+](C)(C)C)cc(C[N+](C)(C)C)c1.[Br-].[Br-] = 125
• CCCCCCCCCCCCCCOc1cccc(C[N+](C)(C)C)c1C[N+](C)(C)C.[Br-].[Br-] = 125
• CCCCCCCCCCOc1ccc(C[N+](C)(C)C)cc1.[Br-] = 250
• CCCCCCCCCCCCCCCCOc1cc(C[N+](C)(C)C)ccc1C[N+](C)(C)C.[Br-].[Br-] = 125

Any idea what MBC was measured for "CCCCCCCCCCCCCCCCCCOc1cc(C[N+](C)(C)C)ccc1C[N+](C)(C)C.[Br-].[Br-]" ?
250

Any idea what MBC was measured for "CCCCCCCCCCCCCCOc1c(C[N+](C)(C)C)cccc1C[N+](C)(C)C.[Br-].[Br-]" ?
500

====

# System: Staphylococcus aureus
# assay_explanation: Antibacterial activity against 5 x 10^5 CFU/mL Staphylococcus aureus subsp. aureus ATCC 29213 incubated for 72 hrs followed by growing of cells on trypticase soy agar plate for 24 hrs by CLSI M07-A8 broth microdilution method
# Type: functional
outcome_measure: MBC (µM)
// note: answer is a bare numeric in µM

For orientation, consider the following solved cases.
* CCCCCCCCCCOc1cc(C[N+](C)(C)C)ccc1C[N+](C)(C)C | 250
* CCCCCCCCCCCCCCOc1cc(C[N+](C)(C)C)cc(C[N+](C)(C)C)c1.[Br-].[Br-] | 4

Any idea what MBC was measured for "CCCCCCCCCCCCCCCCCCOc1cc(C[N+](C)(C)C)ccc1C[N+](C)(C)C.[Br-].[Br-]" ?
16

Any idea what MBC was measured for "CCCCCCCCCCCCCCOc1cc(C[N+](C)(C)C)ccc1C[N+](C)(C)C.[Br-].[Br-]" ?
16

====

# Tested on: Escherichia coli
# assay_explanation: Antibacterial activity against 5 x 10^5 CFU/mL Escherichia coli ATCC 25922 after 72 hrs by CLSI M07-A8 broth microdilution method
# Assay type: functional
# measurement_parameters: ATCC 25922, 72 h
outcome_measure: MIC (µM)
// note: answer is a bare numeric in µM

* CCCCCCCCCCCCCCCCCCOc1cc(C[N+](C)(C)C)ccc1C[N+](C)(C)C.[Br-].[Br-] | 63
* CCCCCCCCCCCCCCOc1cccc(C[N+](C)(C)C)c1C[N+](C)(C)C.[Br-].[Br-] | 63

Any idea what MIC was measured for "CCCCCCCCCCCCCCOc1cc(C[N+](C)(C)C)ccc1C[N+](C)(C)C.[Br-].[Br-]" ?
63

Any idea what MIC was measured for "CCCCCCCCCCCCCCOc1ccc(C[N+](C)(C)C)cc1C[N+](C)(C)C.[Br-].[Br-]" ?
31

Any idea what MIC was measured for "CCCCCCCCCCCCCCOc1cc(C[N+](C)(C)C)cc(C[N+](C)(C)C)c1.[Br-].[Br-]" ?
31

Any idea what MIC was measured for "CCCCCCCCCCCCCCOc1c(C[N+](C)(C)C)cccc1C[N+](C)(C)C.[Br-].[Br-]" ?
125

Any idea what MIC was measured for "CCCCCCCCCCOc1ccc(C[N+](C)(C)C)cc1.[Br-]" ?
63

Any idea what MIC was measured for "CCCCCCCCCCCCCCCCOc1cc(C[N+](C)(C)C)cc(C[N+](C)(C)C)c1.[Br-].[Br-]" ?
63

====

# System: Staphylococcus aureus
# assay_explanation: Antibacterial activity against 5 x 10^5 CFU/mL Staphylococcus aureus subsp. aureus ATCC 29213 incubated for 72 hrs followed by growing of cells on trypticase soy agar plate for 24 hrs by CLSI M07-A8 broth microdilution method
# Assay type: functional
Each entry below carries its recorded MBC.
A complete answer gives the number followed by the unit.

For orientation, consider the following solved cases.
* CCCCCCCCCCOc1ccc(C[N+](C)(C)C)cc1.[Br-] | 8 µM
* CCCCCCCCCCCCCCOc1ccc(C[N+](C)(C)C)cc1.[Br-] | 6 µM
* CCCCCCCCCCCCOS(=O)(=O)[O-].[Na+] [SODIUM LAURYL SULFATE] | 250 µM

// lookup MBC | system=Staphylococcus aureus | key= "CCCCCCCCCCCCCCOc1cccc(C[N+](C)(C)C)c1C[N+](C)(C)C.[Br-].[Br-]"
6 µM

// lookup MBC | system=Staphylococcus aureus | key= "CCCCCCCCCCCCCCCCOc1cc(C[N+](C)(C)C)ccc1C[N+](C)(C)C.[Br-].[Br-]"
16 µM

// lookup MBC | system=Staphylococcus aureus | key= "CCCCCCCCCCCCCCOc1c(C[N+](C)(C)C)cccc1C[N+](C)(C)C.[Br-].[Br-]"
16 µM

====

# System: Pseudomonas aeruginosa
# assay_explanation: Antibacterial activity against 5 x 10^5 CFU/mL Pseudomonas aeruginosa Boston 41501 ATCC 27853 after 72 hrs by CLSI M07-A8 broth microdilution method
# Format: functional
# measurement_parameters: Boston 41501 ATCC 27853, 72 h
Each entry below carries its recorded MIC.
// note: answer is a bare numeric in µM

For orientation, consider the following solved cases.
- CCCCCCCCCCCCCCOc1c(C[N+](C)(C)C)cccc1C[N+](C)(C)C.[Br-].[Br-]: 500
- CCCCCCCCCCCCCCOc1cccc(C[N+](C)(C)C)c1C[N+](C)(C)C.[Br-].[Br-]: 125
- CCCCCCCCCCCCCCCCCCOc1cc(C[N+](C)(C)C)ccc1C[N+](C)(C)C.[Br-].[Br-]: 250
- CCCCCCCCCCOc1ccc(C[N+](C)(C)C)cc1.[Br-]: 250
- CCCCCCCCCCCCCCOc1cc(C[N+](C)(C)C)cc(C[N+](C)(C)C)c1.[Br-].[Br-]: 63

We now examine a further compound.
Any idea what MIC was measured for "CCCCCCCCCCCCCCCCOc1cc(C[N+](C)(C)C)cc(C[N+](C)(C)C)c1.[Br-].[Br-]" ?
125

These measurements were taken from ChEMBL document CHEMBL1817666.
